# pIC50 annotations
# System: OCI-My-2
# Method: In vitro cell proliferation assay (WST.1, Table 5)
# Format: cell-based
# Assay Conditions: Homo sapiens, 72 h; OCI-My-2, day 3
pIC50: −log10 of the molar value.

[[record]]
molecule = "CN(C)c1cc(=O)[nH]c(=O)n1C1OC(CO)C(O)C1O (stereo not shown)"
subject_of_test = "OCI-My-2"
value_measured = "< 4.30"

[[record]]
molecule = "Cc1cc(=O)[nH]c(=O)n1C1CC(O)C(CO)O1 (stereo not shown)"
subject_of_test = "OCI-My-2"
value_measured = "< 4.30"

[[record]]
molecule = "N#Cc1cc(=O)[nH]c(=O)n1[C@@H]1O[C@H](CO)C(O)C1O (stereo partly shown)"
subject_of_test = "OCI-My-2"
value_measured = "< 4.30"


(Q) What does the record list as pIC50 for Cc1cc(=O)[nH]c(=O)n1C1OC(CO)C(O)C1O (stereo not shown) ?
(A) < 4.30

(Q) For O=Cc1cc(=O)[nH]c(=O)n1C1OC(CO)C(O)C1O (stereo not shown) then?
(A) < 4.30
